# Assay method text: Primary qHTS for delayed death inhibitors of the malarial parasite plastid, 96 hour incubation
# Details: P. falciparum luciferase reporter growth; series mostly up to 28.7 µM
Out of some 320,000 compounds screened, about 22,000 (6.9%) were called active. About 27% were inconclusive and are not listed. Calls come from the whole dose curve; as a rule, active = well fitted inhibition curve with a large enough effect; inconclusive = small, poorly fitted or top-dose-only effect, or another doubt; inactive = no such curve, though single readings can be large or run the other way. The list comes from a sample in which actives are over-represented; it also holds close analogues and randomly drawn compounds.
Hi! Could you answer with just one of these? 1 (yes) = active, 0 (no) = inactive

# Compound, Discrete label
records = [
    ("COc1cc([N+](=O)[O-])ccc1NC(=O)COC(=O)CCOc1ccc(C)cc1", "0 (no)"),
    ("Cc1cccn2c(=O)c3cc(C(=O)NCC4CCCO4)c(=N)n(Cc4ccc(F)cc4)c3nc12 (configuration not stated)", "1 (yes)"),
    ("O=C(C1CCN(C2CCN(Cc3ccc4cc(F)ccc4n3)CC2)CC1)N1CCCC1", "0 (no)"),
    ("Cc1ccc(CNCc2ccc3c(c2)OCO3)c(C)c1", "0 (no)"),
]

Please find the next compound below.
Query: So what was the verdict on "COc1ccccc1C(=O)Nc1ccnn1C1CCN(Cc2cnn(C)c2)CC1" in this test?
Reply: 0 (no)

* * *

# Assay method text: Primary qHTS for delayed death inhibitors of the malarial parasite plastid, 96 hour incubation
# Details: P. falciparum luciferase reporter growth; series mostly up to 28.7 µM
Out of some 320,000 compounds screened, about 22,000 (6.9%) were called active. Another 27% or so got no clear call; they are omitted. Calls follow the shape of the dose curve; as a rule, active = well fitted inhibition curve with a large enough effect; inconclusive = small, poorly fitted or top-dose-only effect, or another doubt; inactive = no such curve, though single readings can be large or run the other way. The sample as a whole holds a higher share of actives than the screen did.
Hi! Could you answer with just one of these? true (1) for active, false (0) for inactive

Solved entries (count: 6):
# Molecule, Discrete label
records = [
    ("O=C(Nc1nnc(C2=COCCO2)o1)c1ccc([N+](=O)[O-])s1", "true (1)"),
    ("Cc1cc(NC(=O)COc2ccccc2C#N)no1", "false (0)"),
    ("Cc1cc(OCC(=O)N2CCN(c3ncccn3)CC2)ccc1Cl", "false (0)"),
    ("CCc1ccc(NC(=O)Cn2nnc(C(=O)NCc3ccc4c(c3)OCO4)c2N)cc1", "false (0)"),
    ("Cc1cc(C(F)F)nn1CC(=O)NC1CCCCCC1", "false (0)"),
    ("CCC(CC)c1nnc(NC(=O)C2=COCCO2)s1", "false (0)"),
]

Query: So what was the verdict on "CCN1CCN(C(=O)N[C@@H](C(=O)N[C@@H]2C(=O)N3C(C(=O)O)=C(CSc4nnnn4C)CS[C@H]23)c2ccc(O)cc2)C(=O)C1=O" in this test?
Reply: false (0)

Query: So what was the verdict on "O=C(CN1CCN(C(=O)c2cccc(F)c2)CC1)Nc1ccccc1F" in this test?
Reply: false (0)

Query: So what was the verdict on "COc1cc(OC)nc(S(C)(=O)=O)n1" in this test?
Reply: true (1)

Query: So what was the verdict on "CC1(C)CCc2nc(SCc3ccccc3)c(C#N)cc2C1" in this test?
Reply: true (1)

Query: So what was the verdict on "COc1ccc(NS(=O)(=O)c2ccc(F)cc2F)cn1" in this test?
Reply: false (0)

Query: So what was the verdict on COc1ccc(C2CC(c3ccccc3)=NN2C(=O)COC(=O)COc2ccccc2)cc1 (stereo not given) in this test?
Reply: false (0)

Query: So what was the verdict on "COc1ccc(CNC(=O)CN(Cc2ccccc2Cl)C(=O)c2csnn2)cc1" in this test?
Reply: false (0)

Query: So what was the verdict on Cc1ccccc1C1CC(c2cccs2)=NN1S(C)(=O)=O (stereo not given) in this test?
Reply: false (0)

Query: So what was the verdict on "CCCS(=O)(=O)N1CCN=C1SCc1cccc(F)c1" in this test?
Reply: false (0)

Query: So what was the verdict on "CC1CCN(C(=O)c2ccc(S(=O)(=O)Cc3cc(F)ccc3F)c([N+](=O)[O-])c2)CC1" in this test?
Reply: true (1)

Query: So what was the verdict on CCC(C)N1CC(=O)N2Cc3[nH]c4ccccc4c3C[C@H]2C1=O (stereo not given in full) in this test?
Reply: false (0)

Query: So what was the verdict on NC(=O)NC(=O)C(OC(=O)CCNS(=O)(=O)c1ccccc1)c1ccccc1 (stereo not given) in this test?
Reply: false (0)

Query: So what was the verdict on "Nc1nc(NCC(=O)O)nc(N2CCCCCC2)c1[N+](=O)[O-]" in this test?
Reply: false (0)

Query: So what was the verdict on "O=C(c1cc2ccccc2o1)N1CCN(S(=O)(=O)c2ccc(Cl)s2)CC1" in this test?
Reply: true (1)

Query: So what was the verdict on COc1cccc(C2CC(c3ccccc3)=NN2S(=O)(=O)c2ccccc2)c1OC (stereo not given) in this test?
Reply: false (0)

Query: So what was the verdict on COc1ccccc1C(=O)NN1C(=O)C2C3C=CC(O3)C2C1=O (stereo not given) in this test?
Reply: false (0)

Query: So what was the verdict on "Cn1c(SCC(=O)Nc2nccs2)nnc1-c1cccnc1" in this test?
Reply: false (0)

Query: So what was the verdict on "Cc1cc(NC(=O)CCS(=O)(=O)c2ccc(F)cc2)no1" in this test?
Reply: false (0)

Query: So what was the verdict on "CCCCNC(=O)c1ccc(-n2c(=S)[nH]c3ccccc3c2=O)cc1" in this test?
Reply: false (0)

Query: So what was the verdict on "CC(=O)NC1(c2cccc(F)c2)CCN(CC(=O)NC(C)C)CC1" in this test?
Reply: true (1)

Query: So what was the verdict on "CC(C)(C)NC(=O)NCc1ccco1" in this test?
Reply: false (0)

Query: So what was the verdict on COc1cccc(C2CC(c3cccs3)=NN2C(=O)CSC2=NCCS2)c1OC (stereo not given) in this test?
Reply: true (1)

Query: So what was the verdict on "CCN1CCN(c2ccc(NC(=O)c3cnccn3)cc2)CC1" in this test?
Reply: false (0)

Query: So what was the verdict on COc1ccc(C2CC(c3cccs3)=NN2C(=O)CSc2nncs2)cc1OC (stereo not given) in this test?
Reply: true (1)

Query: So what was the verdict on "C=CCNc1nc(N)c([N+](=O)[O-])c(NC2CCCCC2)n1" in this test?
Reply: true (1)

Query: So what was the verdict on CCN1CCN(C(c2cccnc2)c2cc(Cl)c3cccnc3c2O)CC1 (stereo not given) in this test?
Reply: true (1)

Query: So what was the verdict on "NC(=O)c1c(NC(=O)CSc2nc(N)cc(=O)[nH]2)sc2c1CCCC2" in this test?
Reply: false (0)

* * *

# Assay method text: Primary qHTS for delayed death inhibitors of the malarial parasite plastid, 96 hour incubation
# Details: P. falciparum luciferase reporter growth; series mostly up to 28.7 µM
Screen size: about 320,000 compounds; about 22,000 (6.9%) were called active. Roughly 27% stayed inconclusive and do not appear here. Calls follow the shape of the dose curve; as a rule, active = well fitted inhibition curve with a large enough effect; inconclusive = small, poorly fitted or top-dose-only effect, or another doubt; inactive = no such curve, though single readings can be large or run the other way. The sample as a whole holds a higher share of actives than the screen did.
Hi! Could you answer with just one of these? T = active, F = inactive

Solved entries (count: 10):
# Molecule, Discrete label
records = [
    ("O=C(Nc1ccccc1-c1ccccc1)c1ccccc1[N+](=O)[O-]", "F"),
    ("O=C(OCc1ccc([N+](=O)[O-])cc1)C1CC(=O)N(Cc2ccccc2Cl)C1 (configuration not stated)", "F"),
    ("CC(C)=CCCC(C)CN1CCC(n2nccc2NC(=O)c2ccccc2)CC1 (configuration not stated)", "T"),
    ("CCOC(=O)CNC(=O)CN1C(=O)CCSc2ccccc21", "T"),
    ("CN(C)S(=O)(=O)c1ccc(Cl)c(NC(=O)COC(=O)CC(NC(N)=O)c2ccc(Cl)cc2)c1 (configuration not stated)", "F"),
    ("O=C(Nc1ccnn1C1CCN(C/C=C/c2ccc(F)cc2)CC1)C1CCCC1", "F"),
    ("Cc1c(OC(C)C(=O)N[C@@H](Cc2ccccc2)C(=O)O)ccc2c3c(c(=O)oc12)CCCC3 (some centres not stated)", "F"),
    ("Cc1ccc(S(=O)(=O)N(C)c2nc3ccccc3n3c(C(C)C)nnc23)cc1", "T"),
    ("O=C(NNC(=O)c1ccccc1[N+](=O)[O-])Nc1ccccc1C(F)(F)F", "T"),
    ("CC(=O)Nc1ccc(S(=O)(=O)N(C)c2nc3ccccc3nc2Cl)cc1", "F"),
]

Query: So what was the verdict on "COc1ccc(N2CCN(C(=O)Cn3cnc4sc(C)c(S(=O)(=O)N5CCOCC5)c4c3=O)CC2)cc1" in this test?
Reply: F

Query: So what was the verdict on "Cc1ccc(F)cc1NC(=O)N1CCCN(c2ccc(C(F)(F)F)cn2)CC1" in this test?
Reply: F

Query: So what was the verdict on "CCOc1ccc2c(c1)C(c1ccc(C)cc1)=NNC(c1ccc(C)cc1)=N2" in this test?
Reply: F

Query: So what was the verdict on COC(=O)c1cccc(C(=O)N2CCCC(Nc3ccc4c(c3)OCCO4)C2)c1 (configuration not stated) in this test?
Reply: F

Query: So what was the verdict on "CCOC(=O)c1cc(NC(=O)c2ccc(Cl)cc2)c(=O)oc1-c1ccccc1" in this test?
Reply: F

Query: So what was the verdict on "O=S(=O)(c1cccc(Cn2nnc(-c3ccc(F)cc3)n2)c1)N1CCOCC1" in this test?
Reply: F

Query: So what was the verdict on "CC(C)Oc1ccc(CN2CCC(n3nccc3NC(=O)c3cccnc3)CC2)cc1" in this test?
Reply: F

Query: So what was the verdict on "COc1ccccc1Cn1c(CO)nc2ccccc21" in this test?
Reply: F
